Exercise: state measured koff for each of the binders provided.
# TARGET OR SYSTEM: T1, mouse Ig1,2 TrkA (recombinant D4-D5 domain of murine TrkA receptor) (mouse, UniProt Q3UFB7 193-413)
# T1 construct: also called mTrkA Ig1,2
# T1 sequence (Q3UFB7 other isoform, or with tags, fused parts or gaps limits assumed): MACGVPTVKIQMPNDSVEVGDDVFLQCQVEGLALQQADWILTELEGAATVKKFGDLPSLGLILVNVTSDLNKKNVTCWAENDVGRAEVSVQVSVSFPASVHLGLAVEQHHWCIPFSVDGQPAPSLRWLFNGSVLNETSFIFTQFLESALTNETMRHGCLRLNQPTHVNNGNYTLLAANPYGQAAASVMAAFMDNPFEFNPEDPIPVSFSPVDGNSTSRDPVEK
# PROTOCOL SUMMARY: SPR (Biacore X-100); scFv immobilised on CM5 chip, mouse Ig1,2 TrkA injected
Return type: number; implicit unit s⁻¹.

What does the data say about its koff? Entry: anti-TrkA scFv CRB0069 (scFv, From hSPLINT_09 selection) scFv: QPGLTQPPSASGTPGQRVTISCTGSSSNVGAGYTVHWYQQLPGTAPTLLIYDNNNRPSGVPDRFSGSRSGTSASLAITGLRAEDEADYYCQSYDRSRVYVFGTGTKLTVLSGGSTSGSGKPGSGEGSSGTQVQLQQSGPGLVKPSQTLSLTCAISGDSVSSNSAAWNWIRQSPSRGLERLGRTYYRSKWYNDYAESVKSRIIINSGTSKNQFSLHLNSVTPEDTAVYYCGRAKDGWYDAFDIWGQGTTVTVSS
1.02e-05

Please give the result for anti-TrkA scFv CRB0088 (scFv, From hSPLINT_09 selection) scFv: QPVLTQSPPASASLGASVKLTCTLSSGHSSYAIAWHQQQPEKGPRYLMKVNSDGSHNKGDGIPDRFSGSRSGAERYLTISSLHSEDEADYYCQTWGAGGVVFGGGTKLTVLSGGSTSGSGKPGSGEGSSGTEVQLLESGGGLVQPGGSLRLSCAASGFTFSDHYMDWVRQAPGKGLEWVGRIRNKANSYTTEYAASVKGRFTISRDDSKKTLYLQMTSLKTDDTALYYCARDLGASDAFDLWGQGTMVTVSS too.
0.000131

Please give the result for anti-TrkA scFv CRB0082 (scFv, From hSPLINT_09 selection) scFv: SYVLTQPPSVSVAPGTTARLSCEATKIGSQRLHWYQQKPGQAPVMVISFDSDRPSGIPDRFSGSRSGNTATLTISGVEAGDEADYYCNSRDSSGYHLVFGGGTKLTVLSGGSTSGSGKPGSGEGSSGTQVQLQQSGPGLVKPSQTLSLTCAISGDSVSSFTVAWNWIRQSPSRGLERLGRTYRRSKDYAEYMRSRLTINADTSKNQLSLQLDSVTPDDTAVYYCARGQNSAFDLWGQRTMVTVSS too.
0.000344

Please give the result for anti-TrkA scFv CRB0084 (scFv, From hSPLINT_09 selection) scFv: QPVLTQPPSVSVAPRQTATITCGGNYIGSKSVHWYQQKPGQDPVLVVNDDSDRPSGIPERFSGSNSANTATLTISGVEAGDEADYYCQVWDSSTEPVVFGGGTKLTVLSGGSTSGSGKPGSGEGSSGTQVQLQQWGAGLLRPSETLSLTCTVSGGSFSDSYWTWIRQSPGKGLEWIGENNHRGSTNYSPTLRSRLSISIDSSKNQFSLKLSSVTAADTAVYYCARVPYRLRSRIFDVWGQGTMVTVSS too.
2.33e-05
